// data source = ChEMBL document CHEMBL1137710

# Tested on: SW-620
# Assay explanation: Growth inhibition of human SW620 cells after 48 hrs by sulforhodamine B assay
# Type: functional
# Condition label: SW-620, 48 h
Recorded endpoint: GI50 (µM)
Answers are plain numbers, in µM.

Here are 2 compounds together with their reported answers.
{"Sample smiles": "Nc1cc(N)c2nc(-c3ccccc3)c(NCc3ccc(Cl)c(Cl)c3)nc2c1", "Unit spec": "µM", "GI50": 3.24}
{"Sample smiles": "Nc1cc(N)c2nc(-c3ccccc3)c(Oc3ccc(F)cc3)nc2c1", "Unit spec": "µM", "GI50": 19.5}

Then there is this compound:
GI50 recorded for this compound, `COc1cc(CNc2nc3cc(N)cc(N)c3nc2-c2ccccc2)cc(OC)c1` , is 4.47
